system: K4 kissing-loop RNA reporter; assay: apparent KD of K4 kissing-loop reporter; higher = weaker reporter binding; details: Eterna round: R107; input ligand: FMN 200 uM;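 further: bound reporter read as fluorescence of individual clusters on recovered sequencing chips by microscopy, with normalized cluster intensities fitted with a binding model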
This listing pairs sequences with measured apparent KD of K4 kissing-loop reporter.
Outcome Measure: apparent KD of K4 kissing-loop reporter

[
  {
    "Input Sequence": "GGCACUUUUGCUUGGAACCGUCAAGCUCGAUAGGAUAUGCCGAAAGGCAGAAGGAUUGACCUACAGAGUGAUGUUCUGCGUGCCU",
    "Result": "791 nM"
  },
  {
    "Input Sequence": "GCGCGGCAGGCGGCCGCCACUCUGACGAGCCACAGUGAUGUUGUGGUCGGAGAAACGUCUUCAUAGAGGACCGGGUUUGUUGUUC [Same State Typtophan A GF 25]",
    "Result": "215 nM"
  },
  {
    "Input Sequence": "UGAUACCAGACUGAUACCAGCCAGUGAUGUUGGCAAUAACCAAGGCGAGUCAAAGACUCGGGCCCUUGGCAGCAGUCUGGUAUCU [TheoBX 6 #SwitchBubble #StaticStem]",
    "Result": "134 nM"
  },
  {
    "Input Sequence": "GCCUAGCAGGGAAGGAGCGCCAUAAGAAGUAAAGGAGGGAGUUGAGUGAUGUUCAAAAUGUGGCAGGUAGGUCGCCCUGCUAGGC [KL-SSArg B13]",
    "Result": "705 nM"
  },
  {
    "Input Sequence": "CAGAUCACAGAGUGAUGUUCUGUGUCCGAAGGAGCGCGCGAGAGCGCAGGUAGGUCGCGGAUACAGUUGACGUACCAUCUAGACA [Arg A Ex t3b]",
    "Result": "306 nM"
  },
  {
    "Input Sequence": "CCUUCUCAUUUCCGUUAUCAUUGCCUUAGGAAGGAUAUCAUUAUUUUGAGAAGGUCCGUGGUCUAUUUUCCGAGUGAUGUUUGGU [theeternabot_exclusion_KL_FMN_A_45]",
    "Result": "273 nM"
  }
]
